# assayed-target: Delta-type opioid receptor (Homo sapiens, UniProt P41143)
# Sequence (P41143 whole entry): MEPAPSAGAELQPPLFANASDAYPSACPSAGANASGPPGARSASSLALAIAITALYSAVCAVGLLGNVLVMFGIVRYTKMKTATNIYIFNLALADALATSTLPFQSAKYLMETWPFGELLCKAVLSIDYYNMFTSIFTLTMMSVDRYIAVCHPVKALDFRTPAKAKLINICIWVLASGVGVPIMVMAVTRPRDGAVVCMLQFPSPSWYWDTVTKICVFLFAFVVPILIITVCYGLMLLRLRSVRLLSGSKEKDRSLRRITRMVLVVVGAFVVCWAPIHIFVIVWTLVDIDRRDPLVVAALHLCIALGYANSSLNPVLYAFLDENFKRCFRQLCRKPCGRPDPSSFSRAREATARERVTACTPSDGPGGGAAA
# procedure-details: Agonist activity at human delta opioid receptor expressed in HEK293 cells by CellKey method
# Assay type: cell-based
pEC50: −log10 of the molar value.
Assign yes (1) to entries whose pEC50 meets or exceeds 8; assign no (0) to the rest.

Data request: Hello, I need to know if CN1CC[C@@]23c4c5ccc(O)c4OCO[C@]46CC[C@@]2(O[C@H](C(=O)N4Cc2ccccc2)[C@H]63)[C@H]1C5 has measured pEC50 not below 8. Thanks!
Data returned: no (0)

Data request: Hello, I need to know if O=C1[C@H]2O[C@@]34CC[C@@]5(OCOc6c(O)ccc7c6[C@@]3(CCN(CC3CC3)[C@@H]4C7)[C@H]25)N1CCc1ccccc1 has measured pEC50 not below 8. Thanks!
Data returned: yes (1)

Data request: Hello, I need to know if CC(C)CN1CC[C@@]23c4c5ccc(O)c4OCO[C@]46CC[C@@]2(O[C@H](C(=O)N4Cc2ccccc2)[C@H]63)[C@H]1C5 has measured pEC50 not below 8. Thanks!
Data returned: no (0)

Data request: Hello, I need to know if O=C1[C@H]2O[C@@]34CC[C@@]5(OCOc6c(O)ccc7c6[C@@]3(CCN(CC3CC3)[C@@H]4C7)[C@H]25)N1Cc1ccccc1 has measured pEC50 not below 8. Thanks!
Data returned: yes (1)

Data request: Hello, I need to know if O=C1[C@H]2O[C@@]34CC[C@@]5(OCOc6c(O)ccc7c6[C@@]3(CCN(CC3CC3)[C@@H]4C7)[C@H]25)N1c1ccccc1 has measured pEC50 not below 8. Thanks!
Data returned: yes (1)

Data request: Hello, I need to know if C=CCN1CC[C@@]23c4c5ccc(O)c4OCO[C@]46CC[C@@]2(O[C@H](C(=O)N4Cc2ccccc2)[C@H]63)[C@H]1C5 has measured pEC50 not below 8. Thanks!
Data returned: yes (1)

Data request: Hello, I need to know if O=C1[C@H]2O[C@@]34CC[C@@]5(OCOc6c(O)ccc7c6[C@@]3(CCN(CCc3ccccc3)[C@@H]4C7)[C@H]25)N1Cc1ccccc1 has measured pEC50 not below 8. Thanks!
Data returned: no (0)

---

# assayed-target: Delta-type opioid receptor (Homo sapiens, UniProt P41143)
# procedure-details: Agonist activity at human delta opioid receptor expressed in HEK293 cells by CellKey method relative to SNC80
# Format: cell-based
reported-endpoint: Emax

The compound O=C1[C@H]2O[C@@]34CC[C@@]5(OCOc6c(O)ccc7c6[C@@]3(CCN(CC3CC3)[C@@H]4C7)[C@H]25)N1Cc1ccccc1 showed Emax equal to 88.7%

The compound CC(C)CN1CC[C@@]23c4c5ccc(O)c4OCO[C@]46CC[C@@]2(O[C@H](C(=O)N4Cc2ccccc2)[C@H]63)[C@H]1C5 showed Emax equal to 130%

The compound O=C1[C@H]2O[C@@]34CC[C@@]5(OCOc6c(O)ccc7c6[C@@]3(CCN(CCc3ccccc3)[C@@H]4C7)[C@H]25)N1Cc1ccccc1 showed Emax equal to 108%

---

Give measured pEC50 for each item. Keep answers brief.
# assayed-target: Kappa-type opioid receptor (Homo sapiens, UniProt P41145)
# Sequence (P41145 whole entry): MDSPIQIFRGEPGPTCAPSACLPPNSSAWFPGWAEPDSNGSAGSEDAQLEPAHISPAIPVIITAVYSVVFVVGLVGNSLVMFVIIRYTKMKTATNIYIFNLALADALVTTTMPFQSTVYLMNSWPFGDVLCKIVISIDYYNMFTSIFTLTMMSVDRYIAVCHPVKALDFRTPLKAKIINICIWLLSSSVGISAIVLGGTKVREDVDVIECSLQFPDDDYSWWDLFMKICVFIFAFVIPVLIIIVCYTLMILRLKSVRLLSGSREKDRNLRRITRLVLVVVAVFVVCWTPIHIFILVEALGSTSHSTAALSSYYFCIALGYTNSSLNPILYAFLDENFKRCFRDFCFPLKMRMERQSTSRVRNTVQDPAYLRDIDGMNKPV
# procedure-details: Agonist activity at human kappa opioid receptor expressed in HEK293 cells by CellKey method
# Assay type: cell-based
Interpret pEC50 as the negative base-10 log of the concentration measured in mol/L.

# CC(C)CN1CC[C@@]23c4c5ccc(O)c4OCO[C@]46CC[C@@]2(O[C@H](C(=O)N4Cc2ccccc2)[C@H]63)[C@H]1C5 with Kappa-type opioid receptor (Homo sapiens, UniProt P41145): pEC50 is 6.48

# O=C1[C@H]2O[C@@]34CC[C@@]5(OCOc6c(O)ccc7c6[C@@]3(CCN(CCc3ccccc3)[C@@H]4C7)[C@H]25)N1Cc1ccccc1 with Kappa-type opioid receptor (Homo sapiens, UniProt P41145): pEC50 is 4.90

# O=C1[C@H]2O[C@@]34CC[C@@]5(OCOc6c(O)ccc7c6[C@@]3(CCN(CC3CC3)[C@@H]4C7)[C@H]25)N1Cc1ccccc1 with Kappa-type opioid receptor (Homo sapiens, UniProt P41145): pEC50 is 7.40

Entry source: ChEMBL document CHEMBL3259551
